All values here come from the NIST ThermoML archive (doi:10.1021/je0302304).

Assign refractive index to each entry below.
# assay-explanation: refractive index (Na D-line) (dimensionless); xn = mol fraction of the nth substance listed
# condition-details: 288.15 K; 101.32 kPa; Liquid; Standard Abbe refractometry; x1 = 0.0305
One number for each entry.

>>> df
                                   compound       metric_name  measured_value
0  COCCOCCOCCOC [2,5,8,11-tetraoxadodecane] + CCO  refractive index          1.3691

Please look at the items below and tell me refractive index for each one, in order.
1. COCCOCCOC [2,5,8-trioxanonane] + CCO
2. COCCOCCOCCOCCOC [2,5,8,11,14-pentaoxapentadecane] + CCO
3. COCCOC [1,2-dimethoxyethane] + CCO

Result string:
1.3666
1.3714
1.3642

----------
# assay-explanation: refractive index (Na D-line) (dimensionless); xn = mol fraction of the nth substance listed
# condition-details: 308.15 K; 101.32 kPa; Liquid; Standard Abbe refractometry; x1 = 0.25
metric-name: refractive index
Give bare numbers.

Worked set:
                                   compound  measured_value
0        COCCOC [1,2-dimethoxyethane] + CCO          1.3621
1  COCCOCCOCCOC [2,5,8,11-tetraoxadodecane] + CCO          1.3879
2  COCCOCCOCCOCCOC [2,5,8,11,14-pentaoxapentadecane] + CCO          1.3971

Below: the item to evaluate.
Query string: # refractive index lookup, item COCCOCCOC [2,5,8-trioxanonane] + CCO
Result string: 1.3767

----------
# assay-explanation: xn = mol fraction of the nth substance listed
# condition-details: 318.15 K; 101.32 kPa; Liquid; x1 = 0.35
metric-name: mass density (kg/m3)
Answers are plain numbers, in kg/m3.

Worked set:
>>> df
                                   molecule  measured_value
0      COCCOCCOC [2,5,8-trioxanonane] + CCO           855.8
1  COCCOCCOCCOCCOC [2,5,8,11,14-pentaoxapentadecane] + CCO           920.2
2  COCCOCCOCCOC [2,5,8,11-tetraoxadodecane] + CCO           891.9

Query string: # mass density lookup, item COCCOC [1,2-dimethoxyethane] + CCO
Result string: 804.8

----------
# assay-explanation: refractive index (Na D-line) (dimensionless); xn = mol fraction of the nth substance listed
# condition-details: 288.15 K; 101.32 kPa; Liquid; Standard Abbe refractometry; x1 = 0.1
Numbers after ± are expanded uncertainties.
Assign refractive index to each entry below.

Worked set:
In [3]: df
Out[3]:
                                   compound   measured_value
0  COCCOCCOCCOC [2,5,8,11-tetraoxadodecane] + CCO  1.3799 ± 0.0005
1  COCCOCCOCCOCCOC [2,5,8,11,14-pentaoxapentadecane] + CCO  1.3858 ± 0.0003
2        COCCOC [1,2-dimethoxyethane] + CCO  1.3666 ± 0.0005

Below: the item to evaluate.
Query string: # refractive index lookup, item COCCOCCOC [2,5,8-trioxanonane] + CCO
Result string: 1.3737 ± 0.0005
